The measured values listed here are drawn from ChEMBL document CHEMBL5038581.

Measured inhibition by item
biological target: Lysine-specific histone demethylase 1A (Homo sapiens, UniProt O60341); test: Inhibition of recombinant LSD1 (157 to 852 residues) (unknown origin) expressed in Escherichia coli BL21 (DE) at 10 uM using H3K4me2 as substrate by amplex red assay relative to control
Your answer is read as %, so omit the unit and give the number.

O=C(NO)c1ccc(/C=C/c2ccnc(-c3ccc(F)cc3)c2)cc1 21.2
O=C(NO)c1ccc(/C=C/c2cncc(-c3ccc(C(F)(F)F)cc3)c2)cc1 5.6
O=C(NO)c1ccc(/C=C/c2ccnc(-c3ccc(C(F)(F)F)cc3)c2)cc1 33
O=C(/C=C/c1ccc(/C=C/c2ccnc(-c3ccccc3O)c2)cc1)NO 22.9
O=C(NO)c1ccc(/C=C/c2cc(-c3ccc(C(F)(F)F)cc3)ncc2F)cc1 5.6

So the reported inhibition for Cc1ccc(-c2cncc(/C=C/c3ccc(C(=O)NO)cc3)c2)cc1 , on Lysine-specific histone demethylase 1A (Homo sapiens, UniProt O60341), turned out to be 29.8

So the reported inhibition for Cc1ccc(-c2cc(/C=C/c3ccc(C(=O)NO)cc3)c(F)cn2)cc1 , on Lysine-specific histone demethylase 1A (Homo sapiens, UniProt O60341), turned out to be 20.7

So the reported inhibition for Cc1ccc(-c2cc(/C=C/c3ccc(C(=O)NO)cc3)c(F)cn2)c(F)c1 , on Lysine-specific histone demethylase 1A (Homo sapiens, UniProt O60341), turned out to be 55.2

###

Measured inhibition at 10 µM by item
molecular target: CYP1A2 (Homo sapiens, UniProt P05177); assay: Inhibition of CYP1A2 (unknown origin) at 10 uM using phenacetin as substrate relative to control; assay type: ADME; conditions: probe phenacetin
Sequence (P05177 whole entry): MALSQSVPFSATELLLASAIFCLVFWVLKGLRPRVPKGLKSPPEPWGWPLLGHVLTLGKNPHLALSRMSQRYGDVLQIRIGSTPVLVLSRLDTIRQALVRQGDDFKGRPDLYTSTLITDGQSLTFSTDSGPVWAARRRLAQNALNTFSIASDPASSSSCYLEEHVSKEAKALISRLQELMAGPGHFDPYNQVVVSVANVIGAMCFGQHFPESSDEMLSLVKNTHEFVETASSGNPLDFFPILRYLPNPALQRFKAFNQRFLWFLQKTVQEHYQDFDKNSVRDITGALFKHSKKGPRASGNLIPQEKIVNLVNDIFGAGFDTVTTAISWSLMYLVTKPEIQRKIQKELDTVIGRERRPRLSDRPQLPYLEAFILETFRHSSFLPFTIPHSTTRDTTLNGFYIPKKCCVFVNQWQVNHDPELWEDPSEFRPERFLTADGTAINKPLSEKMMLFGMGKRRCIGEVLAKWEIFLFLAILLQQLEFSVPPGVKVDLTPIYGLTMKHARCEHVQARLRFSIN
Your answer is read as %, so omit the unit and give the number.

Cc1ccc(-c2cc(/C=C/c3ccc(C(=O)NO)cc3)ccn2)c(F)c1 0.95

According to the records, this compound O=C(NO)c1ccc(/C=C/c2ccnc(-c3ccccc3O)c2)cc1 displays inhibition at 10 µM of 48.4

###

biological target: CYP2C19 (Homo sapiens, UniProt P33261); assay: Inhibition of CYP2C19 (unknown origin) at 10 uM using S-mephenytoin as substrate relative to control; format: ADME; conditions: probe S-mephenytoin
Sequence (P33261 whole entry): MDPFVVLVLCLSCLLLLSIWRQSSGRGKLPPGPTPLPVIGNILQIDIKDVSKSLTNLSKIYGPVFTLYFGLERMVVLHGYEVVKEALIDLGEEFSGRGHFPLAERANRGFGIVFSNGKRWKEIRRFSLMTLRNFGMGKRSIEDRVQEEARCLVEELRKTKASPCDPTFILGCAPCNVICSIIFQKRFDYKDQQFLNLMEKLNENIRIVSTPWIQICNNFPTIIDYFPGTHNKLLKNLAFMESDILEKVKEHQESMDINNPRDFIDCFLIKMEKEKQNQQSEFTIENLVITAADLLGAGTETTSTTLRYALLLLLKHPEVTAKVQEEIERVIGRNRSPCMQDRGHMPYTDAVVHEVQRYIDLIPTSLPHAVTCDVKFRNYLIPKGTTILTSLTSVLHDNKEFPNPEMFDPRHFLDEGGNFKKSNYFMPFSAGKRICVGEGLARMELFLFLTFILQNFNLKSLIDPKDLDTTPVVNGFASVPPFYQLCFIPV
property label: inhibition at 10 µM (%)
Your answer is read as %, so omit the unit and give the number.

Cc1ccc(-c2cc(/C=C/c3ccc(C(=O)NO)cc3)ccn2)c(F)c1 22.8

Consider the record given below.
According to the records, this compound O=C(NO)c1ccc(/C=C/c2ccnc(-c3ccccc3O)c2)cc1 displays inhibition at 10 µM of 18.7

###

target: UniProt P10635; assay: in vitro; details: probe dextromethorphan
Sequence (P10635 whole entry): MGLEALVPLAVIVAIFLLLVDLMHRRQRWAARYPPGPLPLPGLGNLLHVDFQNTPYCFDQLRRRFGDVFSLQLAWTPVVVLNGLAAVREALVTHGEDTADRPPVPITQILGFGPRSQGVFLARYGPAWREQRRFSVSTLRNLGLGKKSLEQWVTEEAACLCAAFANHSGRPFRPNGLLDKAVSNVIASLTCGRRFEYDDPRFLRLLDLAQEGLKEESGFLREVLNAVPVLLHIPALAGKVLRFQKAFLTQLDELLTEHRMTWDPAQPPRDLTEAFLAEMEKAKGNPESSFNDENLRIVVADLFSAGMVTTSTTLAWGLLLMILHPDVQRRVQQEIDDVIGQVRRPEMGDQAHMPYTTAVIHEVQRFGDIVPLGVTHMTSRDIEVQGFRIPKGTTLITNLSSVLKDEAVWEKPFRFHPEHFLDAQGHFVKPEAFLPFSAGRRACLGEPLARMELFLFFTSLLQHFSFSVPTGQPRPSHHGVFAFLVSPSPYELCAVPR
property label: inhibition at 1 µM (%)
Your answer is read as %, so omit the unit and give the number.

According to the records, this molecule C=C[C@H]1C[N@@]2CC[C@H]1C[C@@H]2[C@@H](O)c1ccnc2ccc(OC)cc12 [QUINIDINE] displays inhibition at 1 µM of 91.3

###

system: MGC-803; assay: cells; conditions: Homo sapiens, MGC-803, 72 h
property label: pIC50
The read-out pIC50 is expressed as -log10 of concentration in moles per litre.

O=C(NO)c1ccc(/C=C/c2ccncc2)cc1 5.41
COc1ccccc1-c1cc(/C=C/c2ccc(C(=O)NO)cc2)ccn1 5.20
Cc1ccc(-c2cncc(/C=C/c3ccc(C(=O)NO)cc3)c2)c(F)c1 5.65

According to the records, this molecule O=C(NO)c1ccc(/C=C/c2ccnc(-c3ccccc3O)c2)cc1 displays pIC50 of 5.85

According to the records, this molecule O=C(CCCCCCC(=O)Nc1ccccc1)NO displays pIC50 of 5.81

According to the records, this molecule Cc1ccc(-c2cc(/C=C/c3ccc(C(=O)NO)cc3)c(F)cn2)c(F)c1 displays pIC50 of 5.60
